# Tested on: HCT116
# assayProcedure: HCT116 growth inhibition assay
# Type: cell-based
# conditionInfo: without formate
propertyLabel: IC50

Reference set, count: 4
INSERT INTO measurements (molecule, observedvalue) VALUES
  ('COC(=O)N1CC(C#Cc2cc(CO)cc(C3(C(C)C)C(C#N)=C(N)Oc4[nH]nc(C)c43)c2)C1 (stereo not shown)', 'B″'),
  ('Cc1n[nH]c2c1C(c1cc(C#C[C@H]3C[C@@H](C(C)(C)O)C3)cc(C(C)(C)O)c1)(C(C)C)C(C#N)=C(N)O2 (stereo partly shown)', 'C″'),
  ('Cc1c[nH]c2c1C(c1cc(CO)cc(-c3ccc(C4CN(C(=O)OC(C)(C)C)C4)cc3)c1)(C(C)C)C(C#N)=C(N)O2 (stereo not shown)', 'A″'),
  ('Cc1n[nH]c2c1C(c1cc(C#CC3CCOCC3)cc(CO)c1)(C(C)C)C(C#N)=C(N)O2 (stereo not shown)', 'B″');

Briefly, IC50 measured for Cc1n[nH]c2c1C(c1cc(C#C[C@H]3C[C@@H](CO)C3)cc(C(C)(C)O)c1)(C(C)C)C(C#N)=C(N)O2 (stereo partly shown) : D″

Briefly, IC50 measured for Cc1n[nH]c2c1C(c1cc(C#C[C@H]3CC[C@@H](NC(=O)OC(C)(C)C)CC3)cc(CO)c1)(C(C)C)C(C#N)=C(N)O2 (stereo partly shown) : A″

Briefly, IC50 measured for Cc1n[nH]c2c1C(c1cc(C#CC3CN(C(=O)OC(C)(C)C)C3)cc(CO)c1)(C(C)C)C(C#N)=C(N)O2 (stereo not shown) [KDG-0271] : A″

* * *

# assayProcedure: Pharmacokinetics study of KDG-0320-0A in male CD1 mice (Example 1)
# Type: in vivo
# conditionInfo: mouse, plasma, 1 mg/kg IV
# Procedure: A standard pharmacokinetic (PK) study of KDG-0320-0A was performed in male CD1 mice dosed with a single oral, intravenous or intraperitoneal dose of KDG-0320-0A. The parameters of the PK study are described in Table 2. […] For IV, PO and IP, after collection, plasma samples from the same time point were pooled, and the pooled samples were analyzed by LC/MS/MS. […] BLOQ=Below quantifiable limit of 1 ng/mL. […] The PO bioavailability (F %) was calculated as following: […]
Counter-ions that a name gives are not always drawn.
propertyLabel: AUC(0-inf) (ng·h/mL)
Form entry: value (ng·h/mL) — number only.

Briefly, AUC(0-inf) measured for Cc1n[nH]c2c1C(c1cc(C#C[C@H]3CC[C@H](NC(=O)OC(C)(C)C)CC3)cc(CO)c1)(C(C)C)C(C#N)=C(N)O2 (stereo partly shown) [KDG-0320, hydrochloride] : 160

* * *

# assayProcedure: Pharmacokinetics study of KDG-0271 in male CD1 mice (Example 3)
# Type: in vivo
# conditionInfo: mouse; male CD1 mice, plasma, 200 mg/kg PO, 4 h; read-out: Concentration PO_Mean
propertyLabel: concentration at 4 h (ng/mL)
Form entry: value (ng/mL) — number only.

Briefly, concentration at 4 h measured for Cc1n[nH]c2c1C(c1cc(C#CC3CN(C(=O)OC(C)(C)C)C3)cc(CO)c1)(C(C)C)C(C#N)=C(N)O2 (stereo not shown) [KDG-0271] : 395

* * *

# assayProcedure: Pharmacokinetics study of KDG-0320-0A in male CD1 mice (Example 1)
# Format: in vivo
# conditionInfo: mouse, plasma, 30 mg/kg IP, 1 h, read-out: Concentration IP_Mean
Counter-ions that a name gives are not always drawn.
propertyLabel: concentration at 1 h (ng/mL)
Form entry: value (ng/mL) — number only.

Briefly, concentration at 1 h measured for Cc1n[nH]c2c1C(c1cc(C#C[C@H]3CC[C@H](NC(=O)OC(C)(C)C)CC3)cc(CO)c1)(C(C)C)C(C#N)=C(N)O2 (stereo partly shown) [KDG-0320, hydrochloride] : 3060
